System: LOX IMVI melanoma
Test: NCI-60 one-dose screen, 48 h (100 = growth as untreated, 0 = no growth, -100 = all killed)
Settings: 10 µM unless noted
About 83,000 compounds went through this panel and 20% of them were active in at least one assay; those are over-represented in the sample as a whole.
growth for assorted compounds
Give a bare numeral; the unit % is implied.

These solved cases illustrate the format of a correct answer.
[[record]]
compound = "COc1cccc(/C=C/C(=O)Nc2cc(OC)c3c(c2)OCO3)c1"
system_under_test = "LOX IMVI melanoma"
quantity_unit = "%"
reported_result = 95.8

[[record]]
compound = "COc1ccc(/C=C2\\N=C(c3ccccc3)N(C(=O)c3ccccc3O)NC2=O)cc1"
system_under_test = "LOX IMVI melanoma"
quantity_unit = "%"
reported_result = 95.6

[[record]]
compound = "Cc1ccc(S(=O)(=O)NCCNc2nccc(-c3c(-c4cccc(N)c4)nc4sccn34)n2)cc1"
system_under_test = "LOX IMVI melanoma"
quantity_unit = "%"
reported_result = 95

[[record]]
compound = "Cc1ccc(S(=O)(=O)NCCNc2cc(-c3cn(C(C)(C)C)nc3-c3cccc(O)c3)ccn2)cc1"
system_under_test = "LOX IMVI melanoma"
quantity_unit = "%"
reported_result = 47.4

[[record]]
compound = "CC1CCC(C)N(C)C1 (stereo not given)"
system_under_test = "LOX IMVI melanoma"
quantity_unit = "%"
reported_result = 95.9


Turning to the following compound.
Req: Lab note: need growth for CC(=O)Nc1scc[n+]1Cc1ccccc1 on LOX IMVI melanoma, anyone have it?
Resp: 87.9

---

Test system: SN12C renal
Experiment: NCI-60 one-dose screen, 48 h (100 = growth as untreated, 0 = no growth, -100 = all killed)
Conditions: 10 µM unless noted
About 83,000 compounds went through this panel and 20% of them were active in at least one assay; those are over-represented in the sample as a whole. Activity calls are given as the source filed them. The calls were made as follows: active = growth percent below 10; inactive = the rest.
growth for assorted compounds

[[record]]
compound = "COc1cccc(-c2cc3c(O)cc(C#N)cc3[nH]2)c1"
system_under_test = "SN12C renal"
value_kind = "growth"
reported_result = "66.1% (inactive)"

[[record]]
compound = "CN(C)CCCC(C#N)c1ccccc1 (configuration not stated)"
system_under_test = "SN12C renal"
value_kind = "growth"
reported_result = "101% (inactive)"


Req: // returns reported growth for input Brc1cccc(-c2cc(-c3ccc4nccnc4c3)[nH]n2)c1
Resp: 35.5% [25 µM] (inactive)

Req: // returns reported growth for input C=C1CCC2C(C)(CO)C(O)CCC2(C)C1CC(NCc1ccccc1)C1=CCOC1=O (configuration not stated)
Resp: 93.1% (inactive)

---

System: K-562 leukemia
Assay: NCI-60 one-dose screen, 48 h
Conditions: 10 µM unless noted
This is part of a sample that, as a whole, favours compounds with a hit. Of some 83,000 tested, about 20% had one in any assay. Activity calls are given as the source filed them. Rule for the calls: active = growth percent below 10; inactive = the rest.
Form entry, call: pick from active, inactive

The examples below pair each entry with its known result.
[[record]]
compound = "COc1ccc(N=Cc2c(O)ccc3c2oc2cc(Cl)c(O)c(Cl)c23)cc1"
class_assignment = "inactive"

[[record]]
compound = "COc1ccc(-c2cc(-c3ccccc3)nc(SCCCC(=O)NO)n2)cc1OC"
class_assignment = "active"

[[record]]
compound = "COc1cc(C2CC(c3ccc4c(c3)OCO4)=NN2C(C)=O)cc(OC)c1OC (centres undefined)"
class_assignment = "inactive"


# evaluate next
Req: Recorded call for COc1ccc(C2C=C(c3ccc(OC)c(OC)c3)N=C3SC=C(C)N32)c(Br)c1 (centres undefined) ?
Resp: inactive

---

Tested on: MDA-MB-435 melanoma
Experiment: NCI-60 one-dose screen, 48 h (100 = growth as untreated, 0 = no growth, -100 = all killed)
Conditions: 10 µM unless noted
This is part of a sample that, as a whole, favours compounds with a hit. Of some 83,000 tested, about 20% had one in any assay.
growth for assorted compounds
Give a bare numeral; the unit % is implied.

[[record]]
compound = "CCOC(=O)c1cn2c3c(cccc3c1=O)C(=O)/C(=C/c1cccc(Cl)c1Cl)C2"
value_kind = "growth"
quantity_unit = "%"
reported_result = 106

[[record]]
compound = "CCN(CC)c1ccc(C(=N)c2ccc(N(CC)CC)cc2)cc1"
value_kind = "growth"
quantity_unit = "%"
reported_result = -35.2

[[record]]
compound = "CC1(c2ccc(Cl)cc2)OC(=O)CC(=O)O1"
value_kind = "growth"
quantity_unit = "%"
reported_result = 106

[[record]]
compound = "COc1ccc2c(c1)NC1=C(C(=O)OC1)C2c1cc(OC)c2c(c1)OCO2 (stereo not drawn)"
value_kind = "growth"
quantity_unit = "%"
reported_result = -14.7

[[record]]
compound = "Cc1c(C(N)=O)sc2c1c(=O)n(Cc1ccccc1)c1nnc(Nc3ccccc3)n21"
value_kind = "growth"
quantity_unit = "%"
reported_result = 103


Req: // returns reported growth for input O=[N+]([O-])c1cccc(-c2nc3sccn3c2-c2ccnc(NCCCNS(=O)(=O)c3ccc(C(F)(F)F)cc3)n2)c1
Resp: 18.4

Req: // returns reported growth for input C=C1CCC[C@]2(C)CCC[C@H](C)[C@@H](OC(C)=O)[C@@H]3OC(=O)C(=C)[C@@H]3C[C@H]1O2
Resp: 53.9

Req: // returns reported growth for input NC(N)=N/N=C/c1ccc(-c2ccc(-c3cc(Cl)cc(Cl)c3)s2)cc1
Resp: 1.1

---

growth for assorted compounds
Test system: SK-MEL-28 melanoma
Test: NCI-60 one-dose screen, 48 h (100 = growth as untreated, 0 = no growth, -100 = all killed)
Details: 10 µM unless noted
This is part of a sample that, as a whole, favours compounds with a hit. Of some 83,000 tested, about 20% had one in any assay.
Give a bare numeral; the unit % is implied.

These solved cases illustrate the format of a correct answer.
[[record]]
compound = "O=S1(=O)CCC(N(/N=C/c2ccco2)c2ccccc2)C1 (stereo not given)"
quantity_unit = "%"
reported_result = 115

[[record]]
compound = "S=C1CC(=S)NC(=S)N1"
quantity_unit = "%"
reported_result = 108

[[record]]
compound = "CCC1=CCC[C@@]2(C)CCC[C@@]3(C)CCCC(C)(C)[C@]1([O-])[O+]32"
quantity_unit = "%"
reported_result = 96.8

[[record]]
compound = "O=C(Nc1cccc(-n2cc(-c3ccncc3)c(-c3ccc(Cl)c(O)c3)n2)c1)c1ccc(N2CCOCC2)c(C(F)(F)F)c1"
quantity_unit = "%"
reported_result = 1.14


Turning to the following compound.
Req: // returns reported growth for input CCC(C)/C(=C\C#N)NCCCN/C(=C/C#N)C(C)CC (stereo not given)
Resp: 111

---

System: HS 578T breast
Assay: NCI-60 one-dose screen, 48 h (100 = growth as untreated, 0 = no growth, -100 = all killed)
Conditions: 10 µM unless noted
This is part of a sample that, as a whole, favours compounds with a hit. Of some 83,000 tested, about 20% had one in any assay.
growth for assorted compounds
Give a bare numeral; the unit % is implied.

These solved cases illustrate the format of a correct answer.
[[record]]
compound = "Cc1ccc(-c2nc(C#N)c(S(=O)(=O)n3nc(-c4ccccc4)cc3N)o2)cc1"
reported_result = 95.6

[[record]]
compound = "CCCOC(=O)n1cccc1"
reported_result = 105

[[record]]
compound = "O=C(CSC1CCc2ccccc21)N/N=C/c1ccccc1O (centres undefined)"
reported_result = 84.9


Turning to the following compound.
Req: Lab note: need growth for CN(C)c1nc2c(N)ncnc2n1C1OC(CO)C(O)C1O (centres undefined) on HS 578T breast, anyone have it?
Resp: 106

---

System: NCI-H322M lung
Test: NCI-60 one-dose screen, 48 h (100 = growth as untreated, 0 = no growth, -100 = all killed)
Conditions: 10 µM unless noted
About 83,000 compounds went through this panel and 20% of them were active in at least one assay; those are over-represented in the sample as a whole. The source made the active and inactive calls. Rule for the calls: active = growth percent below 10; inactive = the rest.
value_kind: growth

[[record]]
record_smiles = "O=C(Nc1ccc(Cl)c(Cl)c1)NS(=O)(=O)c1cnccc1Oc1ccc(F)cc1"
reported_result = "89.2% (inactive)"

[[record]]
record_smiles = "COc1ccc(NC(=O)CSc2nc(-c3ccc(OC)c(OC)c3)cc(-c3cc(OC)c(OC)c(OC)c3)n2)cc1"
reported_result = "90.4% (inactive)"


Req: Lab note: need growth for CCN1CCN(c2nc(NNC(=O)c3ccccc3)nc(N3CCN(C(c4ccccc4)c4ccccc4)CC3)n2)CC1 on NCI-H322M lung, anyone have it?
Resp: 90.3% (inactive)

---

System: SNB-19 CNS
Experiment: NCI-60 one-dose screen, 48 h (100 = growth as untreated, 0 = no growth, -100 = all killed)
Conditions: 10 µM unless noted
This is part of a sample that, as a whole, favours compounds with a hit. Of some 83,000 tested, about 20% had one in any assay.
growth for assorted compounds
Give a bare numeral; the unit % is implied.

These solved cases illustrate the format of a correct answer.
[[record]]
compound = "CSc1nc2c(c(=O)[nH]1)C(c1ccc(C)cc1)C=C(C(=O)O)N2 (centres undefined)"
value_kind = "growth"
reported_result = 133

[[record]]
compound = "COc1cc(C2NN=C3c4ccccc4CCC32)cc(OC)c1OC (centres undefined)"
value_kind = "growth"
reported_result = 79.3

[[record]]
compound = "COc1cc(C(=O)/C=C/c2c(C)n([O-])c3ccc(C(F)(F)F)cc3[n+]2=O)cc(OC)c1OC"
value_kind = "growth"
reported_result = 90.9

[[record]]
compound = "COC(=O)c1cc(=O)nc(N/N=C/c2ccco2)s1"
value_kind = "growth"
reported_result = 105

[[record]]
compound = "Cc1c(C(=O)/C=C/c2csc3ccccc23)[n+](=O)c2ccccc2n1[O-]"
value_kind = "growth"
reported_result = 73.7


Req: Lab note: need growth for NC1=NC(SCc2ccccc2CCl)c2ncn(Cc3ccccc3CCl)c2N1 (centres undefined) on SNB-19 CNS, anyone have it?
Resp: 74.7

Req: Lab note: need growth for COc1ccc2[nH]c(C(=O)OCc3ccc4c(Cl)cc(Cl)c(O)c4n3)cc2c1 on SNB-19 CNS, anyone have it?
Resp: 53.2

Req: Lab note: need growth for CN(C)CC(C(=O)c1ccccc1)c1ccccc1 (centres undefined) on SNB-19 CNS, anyone have it?
Resp: 84.4

Req: Lab note: need growth for N#Cc1c(Nc2ccccc2)nc2n(c1=O)-c1ccccc1Sc1ccccc1-2 on SNB-19 CNS, anyone have it?
Resp: 77.9

Req: Lab note: need growth for C1=Cc2ccccc2N(c2nnc(-c3ccccc3)o2)c2ccccc21 on SNB-19 CNS, anyone have it?
Resp: 96.7

Req: Lab note: need growth for CC(C)C(C(=O)NCCN1CCOCC1)N1C(=O)/C(=C/c2ccc(Br)cc2)SC1=S (centres undefined) on SNB-19 CNS, anyone have it?
Resp: 92.5

Req: Lab note: need growth for COc1cc(C2CC(c3ccc4c(c3)OCO4)=NN2C(C)=O)cc(OC)c1OC (centres undefined) on SNB-19 CNS, anyone have it?
Resp: 47.6

Req: Lab note: need growth for O=C(CSc1nc2ccccc2[nH]1)Nc1ccc(-c2nc3ccccc3s2)c(Cl)c1 on SNB-19 CNS, anyone have it?
Resp: 65

Req: Lab note: need growth for CCCCC(CC)OC(=O)C(Br)CC (centres undefined) on SNB-19 CNS, anyone have it?
Resp: 110

Req: Lab note: need growth for Nc1cccc(-c2nc3sccn3c2-c2ccnc(NCCNS(=O)(=O)c3ccc(C(F)(F)F)cc3)n2)c1 on SNB-19 CNS, anyone have it?
Resp: 75.4

Req: Lab note: need growth for CN(C)c1oc(C2OC2c2ccccc2)nc1C#N (centres undefined) on SNB-19 CNS, anyone have it?
Resp: 83.2

Req: Lab note: need growth for C=C[C@@H]1C[C@@H]2Cc3cc(F)ccc3N1O2 on SNB-19 CNS, anyone have it?
Resp: 109

Req: Lab note: need growth for NC(=S)N/N=C(/CCN1CCCC1)CC(C1=C(O)C2=CCCCC2OC1=O)c1ccccc1 (centres undefined) on SNB-19 CNS, anyone have it?
Resp: 109

Req: Lab note: need growth for CCc1ccc(-c2ccc(=O)n(-c3ccc(S(N)(=O)=O)cc3)n2)cc1 on SNB-19 CNS, anyone have it?
Resp: 57.6

Every entry's value here was drawn from PubChem BioAssay (NCI).
